Biological target: JAK3 (Homo sapiens, UniProt P52333)
Construct: endogenous in cells
Sequence (P52333 1-1124): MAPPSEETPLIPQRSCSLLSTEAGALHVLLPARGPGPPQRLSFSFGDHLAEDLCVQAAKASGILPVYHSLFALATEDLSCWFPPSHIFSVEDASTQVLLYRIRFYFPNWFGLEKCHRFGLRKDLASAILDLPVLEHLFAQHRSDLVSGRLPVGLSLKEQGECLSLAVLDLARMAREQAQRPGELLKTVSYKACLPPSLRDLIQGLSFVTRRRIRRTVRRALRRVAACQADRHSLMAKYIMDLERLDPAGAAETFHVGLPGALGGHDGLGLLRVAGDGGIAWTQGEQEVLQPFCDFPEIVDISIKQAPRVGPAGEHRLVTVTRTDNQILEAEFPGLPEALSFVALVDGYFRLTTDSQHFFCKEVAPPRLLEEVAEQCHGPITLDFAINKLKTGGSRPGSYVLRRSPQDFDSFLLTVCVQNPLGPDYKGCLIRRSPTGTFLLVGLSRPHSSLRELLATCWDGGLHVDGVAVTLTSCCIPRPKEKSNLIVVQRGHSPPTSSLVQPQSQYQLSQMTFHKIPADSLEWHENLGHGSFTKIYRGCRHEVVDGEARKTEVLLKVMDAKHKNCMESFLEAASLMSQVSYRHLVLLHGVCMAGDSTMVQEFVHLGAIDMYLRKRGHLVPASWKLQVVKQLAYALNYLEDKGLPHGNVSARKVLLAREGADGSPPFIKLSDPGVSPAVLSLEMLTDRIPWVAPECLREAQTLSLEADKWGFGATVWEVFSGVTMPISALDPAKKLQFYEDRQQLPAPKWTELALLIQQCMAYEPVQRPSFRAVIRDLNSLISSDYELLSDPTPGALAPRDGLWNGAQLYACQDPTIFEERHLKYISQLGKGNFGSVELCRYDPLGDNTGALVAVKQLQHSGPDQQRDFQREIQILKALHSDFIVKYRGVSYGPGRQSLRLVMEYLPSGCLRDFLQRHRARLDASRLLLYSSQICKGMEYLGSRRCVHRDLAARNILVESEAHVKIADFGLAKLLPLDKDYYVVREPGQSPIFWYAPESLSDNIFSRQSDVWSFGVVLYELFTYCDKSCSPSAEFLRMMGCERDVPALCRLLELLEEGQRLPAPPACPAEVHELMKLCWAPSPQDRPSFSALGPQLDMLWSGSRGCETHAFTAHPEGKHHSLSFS
Assay: Kinobeads assay, JAK3
Conditions: mixed Molt4/Ramos cell lysate, dot blot detection
Method: The compounds of the present invention as described in the previous examples were tested in a Kinobeads™ assay as described for ZAP-70 (WO-A 2007/137867). […] Bound proteins were then eluted and the presence of JAK2 and JAK3 was detected and quantified using specific antibodies in a dot blot procedure and the Odyssey infrared detection system. Dose response curves for individual kinases were generated and IC50 values calculated. […]
pIC50: −log10 of the molar value.
Entries annotated with measured pIC50

Solved cases (3 shown):
>>> observed_result("Cn1cc(Nc2ncc3cnn(Cc4cccc(N[C@@H]5CCOC5)n4)c3n2)cn1")
"> 7.00"
>>> observed_result("Cn1cc(Nc2ncc3cnn(-c4ccc(S(N)(=O)=O)c(F)c4)c3n2)cn1")
"6.00 to 7.00"
>>> observed_result("N#CCCCn1cc(Nc2ncc3cnn(Cc4ccccc4C#N)c3n2)cn1")
"> 7.00"

Please examine the following record next.
## Task So what does the record say about pIC50 for COc1nn(CCO)cc1Nc1ncc2cnn(Cc3ccccc3)c2n1 ?
## Result > 7.00

###

biological target: JAK2 (Homo sapiens, UniProt O60674); construct: endogenous in cells; assay: Kinobeads assay, JAK2; details: mixed Molt4/Ramos cell lysate, dot blot detection
Sequence (O60674 whole entry): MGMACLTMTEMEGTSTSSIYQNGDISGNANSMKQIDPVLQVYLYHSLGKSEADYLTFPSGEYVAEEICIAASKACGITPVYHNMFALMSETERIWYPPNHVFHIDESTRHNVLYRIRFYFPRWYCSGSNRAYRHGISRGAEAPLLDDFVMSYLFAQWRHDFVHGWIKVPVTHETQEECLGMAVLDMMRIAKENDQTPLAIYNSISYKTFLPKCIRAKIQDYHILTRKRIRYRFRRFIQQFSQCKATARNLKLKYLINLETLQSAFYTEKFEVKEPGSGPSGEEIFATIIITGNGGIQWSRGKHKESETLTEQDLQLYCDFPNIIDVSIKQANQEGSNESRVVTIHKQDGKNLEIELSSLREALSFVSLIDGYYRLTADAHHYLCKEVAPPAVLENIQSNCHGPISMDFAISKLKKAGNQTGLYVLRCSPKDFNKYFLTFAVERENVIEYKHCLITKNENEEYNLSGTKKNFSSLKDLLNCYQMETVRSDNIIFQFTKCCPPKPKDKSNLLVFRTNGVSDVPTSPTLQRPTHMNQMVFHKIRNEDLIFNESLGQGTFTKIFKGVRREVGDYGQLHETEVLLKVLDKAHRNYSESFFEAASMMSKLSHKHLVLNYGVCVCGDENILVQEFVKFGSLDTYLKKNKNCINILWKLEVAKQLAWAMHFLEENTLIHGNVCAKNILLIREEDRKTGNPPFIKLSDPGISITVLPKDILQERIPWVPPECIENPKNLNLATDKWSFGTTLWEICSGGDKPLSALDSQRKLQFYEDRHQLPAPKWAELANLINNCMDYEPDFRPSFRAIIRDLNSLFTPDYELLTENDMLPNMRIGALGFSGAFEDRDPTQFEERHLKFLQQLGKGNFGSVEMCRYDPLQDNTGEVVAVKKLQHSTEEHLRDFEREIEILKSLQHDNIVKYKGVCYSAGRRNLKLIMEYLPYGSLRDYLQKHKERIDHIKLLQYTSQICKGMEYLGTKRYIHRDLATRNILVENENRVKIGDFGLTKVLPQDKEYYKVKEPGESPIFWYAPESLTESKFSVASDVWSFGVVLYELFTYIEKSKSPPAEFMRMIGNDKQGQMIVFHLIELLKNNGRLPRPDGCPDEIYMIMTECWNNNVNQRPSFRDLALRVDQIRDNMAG
PARAMETER: IC50

>>> observed_result("OCCn1cc(Nc2ncc3cnn(Cc4cccc(F)n4)c3n2)cn1 [Example 314]")
"100 to 1000 nM"

## Task Identify the measured IC50 of CO[C@@H](C)COc1cccc(Cn2ncc3cnc(Nc4cnn(C)c4)nc32)c1 [Example 171] for JAK2 (Homo sapiens, UniProt O60674).
## Result ≥ 10000 nM

## Task Please answer likewise for N#Cc1ccc(F)cc1Cn1ncc2cnc(Nc3cnn(CC(F)F)c3)nc21 [Example 130]
## Result 100 to 1000 nM

## Task Please answer likewise for Cn1cc(Nc2ncc3cnn(Cc4cccc(N5CCCC5)n4)c3n2)cn1 [Example 188]
## Result ≥ 10000 nM

## Task Please answer likewise for Cn1cc(Nc2ncc3cnn(CCc4ccccc4F)c3n2)cn1 [Example 77]
## Result ≥ 10000 nM

## Task Please answer likewise for Cn1cc(Nc2ncc3cnn(Cc4cccc(F)c4F)c3n2)cn1 [Example 31]
## Result 1000 to 10000 nM

###

Entries annotated with measured IC50
Molecular target: JAK3 (Homo sapiens)
Construct: endogenous in cells; host or cells: Mixed Molt4/Ramos lysate (1:2)
Sequence (P52333 1-1124): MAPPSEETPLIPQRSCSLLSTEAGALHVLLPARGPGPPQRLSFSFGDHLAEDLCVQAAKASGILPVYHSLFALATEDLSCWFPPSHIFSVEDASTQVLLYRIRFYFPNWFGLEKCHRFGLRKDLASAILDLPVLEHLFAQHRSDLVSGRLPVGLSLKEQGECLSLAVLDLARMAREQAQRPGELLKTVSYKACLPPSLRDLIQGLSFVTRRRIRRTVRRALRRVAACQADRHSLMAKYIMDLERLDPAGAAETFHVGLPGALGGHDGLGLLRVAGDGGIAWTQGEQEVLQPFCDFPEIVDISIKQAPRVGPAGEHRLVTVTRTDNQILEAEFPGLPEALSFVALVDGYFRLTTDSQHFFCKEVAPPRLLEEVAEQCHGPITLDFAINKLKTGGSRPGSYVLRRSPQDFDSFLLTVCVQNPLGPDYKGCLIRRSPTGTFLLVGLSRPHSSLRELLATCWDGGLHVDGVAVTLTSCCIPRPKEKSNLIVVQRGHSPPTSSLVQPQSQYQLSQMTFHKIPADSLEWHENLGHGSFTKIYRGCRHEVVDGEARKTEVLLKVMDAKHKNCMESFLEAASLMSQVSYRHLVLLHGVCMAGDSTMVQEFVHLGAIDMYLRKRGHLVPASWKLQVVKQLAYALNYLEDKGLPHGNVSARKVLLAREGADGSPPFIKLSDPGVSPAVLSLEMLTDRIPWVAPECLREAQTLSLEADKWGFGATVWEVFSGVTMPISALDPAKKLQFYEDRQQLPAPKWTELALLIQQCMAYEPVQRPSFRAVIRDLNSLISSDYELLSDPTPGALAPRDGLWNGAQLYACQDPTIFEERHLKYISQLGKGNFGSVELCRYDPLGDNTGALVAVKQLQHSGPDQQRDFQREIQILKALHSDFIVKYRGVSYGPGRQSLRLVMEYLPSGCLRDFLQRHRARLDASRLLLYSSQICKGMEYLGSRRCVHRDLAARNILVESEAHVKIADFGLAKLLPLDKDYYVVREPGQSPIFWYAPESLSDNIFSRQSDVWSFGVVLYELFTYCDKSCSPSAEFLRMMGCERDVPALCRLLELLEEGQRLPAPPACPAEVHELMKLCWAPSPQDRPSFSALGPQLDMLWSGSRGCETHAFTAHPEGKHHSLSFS
Experiment: Kinobeads assay, JAK3
Type: binding
Conditions: mixed Molt4/Ramos cell lysate, dot blot detection

Solved cases (2 shown):
>>> observed_result("Cc1c(Nc2ncc3cnn(Cc4ccccc4)c3n2)cnn1C")
"0.1 to 1 µM"
>>> observed_result("CC(=O)n1cc(Nc2ncc3cnn(Cc4ccccc4F)c3n2)cn1")
"< 0.1 µM"

## Task Identify the measured IC50 of Cn1cc(Nc2ncc3cnn(-c4ccc(S(N)(=O)=O)cc4)c3n2)cn1 for JAK3 (Homo sapiens).
## Result < 0.1 µM

## Task Please answer likewise for CCN(CC)CCn1cc(Nc2ncc3cnn(Cc4ccccc4F)c3n2)cn1
## Result < 0.1 µM

## Task Please answer likewise for Cn1cc(Nc2ncc3cnn(Cc4cccc(OC(F)(F)F)c4)c3n2)cn1
## Result 0.1 to 1 µM

## Task Please answer likewise for COCCOc1cccc(Cn2ncc3cnc(Nc4cnn(CCCN(C)C)c4)nc32)c1
## Result < 0.1 µM

## Task Please answer likewise for Cn1cc(Nc2ncc3cnn(Cc4cccc5ccccc45)c3n2)cn1
## Result 0.1 to 1 µM

## Task Please answer likewise for N#Cc1ccccc1Cn1ncc2cnc(Nc3cn[nH]c3)nc21
## Result < 0.1 µM

## Task Please answer likewise for Cn1cc(Nc2ncc3cnn(Cc4ccccc4)c3n2)cn1
## Result < 0.1 µM

###

target: JAK2 (Homo sapiens, UniProt O60674); construct: endogenous in cells; assay: Kinobeads assay, JAK2; conditions: mixed Molt4/Ramos cell lysate, dot blot detection
PARAMETER: IC50

Solved cases (5 shown):
>>> observed_result("Fc1ccccc1Cn1ncc2cnc(Nc3cnn(CCN4CCOCC4)c3)nc21")
"0.1 to 1 µM"
>>> observed_result("N#CCCn1cc(Nc2ncc3cnn(Cc4ccccc4C#N)c3n2)cn1")
"1 to 10 µM"
>>> observed_result("Cc1c(Nc2ncc3cnn(Cc4ccccc4)c3n2)cnn1C")
"≥ 10 µM"
>>> observed_result("Cc1ccc(O)cc1Cn1ncc2cnc(Nc3cnn(C)c3)nc21")
"≥ 10 µM"
>>> observed_result("Cn1cc(Nc2ncc3cnn(Cc4cccc(Cl)c4F)c3n2)cn1")
"1 to 10 µM"

## Task So what does the record say about IC50 for COc1cccc(Cn2ncc3cnc(Nc4cnn(C)c4)nc32)c1F ?
## Result ≥ 10 µM

## Task Please answer likewise for OCCn1cc(Nc2ncc3cnn(Cc4c(F)cccc4F)c3n2)cn1
## Result 0.1 to 1 µM

## Task Please answer likewise for Cn1cc(Nc2ncc3cnn(Cc4cccnc4F)c3n2)cn1
## Result 1 to 10 µM

## Task Please answer likewise for Cn1cc(Nc2ncc3cnn(Cc4ccncc4F)c3n2)cn1
## Result 1 to 10 µM

## Task Please answer likewise for CNC(=O)Cn1cc(Nc2ncc3cnn(Cc4ccccc4C#N)c3n2)cn1
## Result 0.1 to 1 µM
